Subject Of Test: T1, PSMA Fab (SEQ ID NOs: 19, 20)
T1 construct: also called Anti-PSMA Fab; 006 PSMA Fab
Test Description: clonal phage ELISA, biotinylated PSMA Fab on neutravidin plate, anti-M13 HRP detection;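 also: crude clonal phage supernatants added to wells pretreated with blocking buffer either with or without PSMA antigen, bound phage read after washing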
Exercise: for every item that follows, state its recorded Phage binding ELISA signal, Anti-PSMA Fab.
Answers are plain numbers.

VVKACIPEWMCSGF (Tested as crude clonal phage supernatant) [Phage-3545] ... 1.65

For every record below, what is its Phage binding ELISA signal, Anti-PSMA Fab?
1. DARACVPEWMCYGF (Tested as crude clonal phage supernatant) [Phage-3546]
2. ENLICKPAWMCVGF (Tested as crude clonal phage supernatant) [Phage-3541]
3. VTPQCVPMWMCTGF (Tested as crude clonal phage supernatant) [Phage-3543]
4. VERVCVPQWMCSGF (Tested as crude clonal phage supernatant) [Phage-3533]
5. FLQACKPPWMCTGF (Tested as crude clonal phage supernatant) [Phage-3544]

Response given:
1. 1.65
2. 1.65
3. 1.65
4. 1.66
5. 1.65

For every record below, what is its Phage binding ELISA signal, Anti-PSMA Fab?
1. ESVYCIPQWMCSGL (Tested as crude clonal phage supernatant) [Phage-3534]
2. LYVKCSPEWMCIGF (Tested as crude clonal phage supernatant) [Phage-3542]

Response given:
1. 1.66
2. 1.65
